All figures here come from paper PMC13386468.

measurement target: cAMP-dependent protein kinase catalytic subunit (PfPKAc, PF3D7_0934800) (Plasmodium falciparum, UniProt Q7K6A0)
Construct: with PfPKAr (PF3D7_1223100)
Sequence (Q7K6A0 1-342): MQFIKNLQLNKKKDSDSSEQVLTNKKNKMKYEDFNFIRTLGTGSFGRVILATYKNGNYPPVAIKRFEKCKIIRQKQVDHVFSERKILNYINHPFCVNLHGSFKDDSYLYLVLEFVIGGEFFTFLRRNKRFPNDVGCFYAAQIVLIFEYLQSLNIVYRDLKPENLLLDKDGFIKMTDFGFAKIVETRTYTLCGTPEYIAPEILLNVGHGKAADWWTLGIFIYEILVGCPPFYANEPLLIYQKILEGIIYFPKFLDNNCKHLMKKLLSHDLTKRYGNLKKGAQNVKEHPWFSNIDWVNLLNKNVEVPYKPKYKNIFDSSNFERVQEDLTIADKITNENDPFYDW
Sequence (Q7KQK0 1-441 partner): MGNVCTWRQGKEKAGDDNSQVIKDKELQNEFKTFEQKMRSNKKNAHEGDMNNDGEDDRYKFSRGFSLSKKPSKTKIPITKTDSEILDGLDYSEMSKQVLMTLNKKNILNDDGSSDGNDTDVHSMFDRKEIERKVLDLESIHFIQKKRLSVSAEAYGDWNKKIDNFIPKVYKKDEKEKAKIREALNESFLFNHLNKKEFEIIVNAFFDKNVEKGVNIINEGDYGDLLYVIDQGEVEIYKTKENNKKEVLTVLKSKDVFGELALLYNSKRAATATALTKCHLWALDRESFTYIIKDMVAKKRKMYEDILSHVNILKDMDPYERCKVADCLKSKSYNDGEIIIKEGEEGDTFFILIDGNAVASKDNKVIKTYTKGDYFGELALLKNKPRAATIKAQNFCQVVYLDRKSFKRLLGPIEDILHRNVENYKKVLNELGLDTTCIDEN
experimental protocol: Kinobead competitive pulldown from asexual blood stage parasite lysate, mass spectrometry
endpoint: Kd (µM)
Give the quantity in µM, number only.

Quick one: give measured Kd for O=c1[nH]c2ccc(Cl)cc2c(N[C@@H]2CN3CCC2CC3)c1-c1nc2ccccc2[nH]1 0.61

* * *

measurement target: Serine/threonine protein kinase ; PF3D7_0605300 ; C6KSQ1 (Plasmodium falciparum)
Sequence (C6KSQ1 1-353, one chain of several): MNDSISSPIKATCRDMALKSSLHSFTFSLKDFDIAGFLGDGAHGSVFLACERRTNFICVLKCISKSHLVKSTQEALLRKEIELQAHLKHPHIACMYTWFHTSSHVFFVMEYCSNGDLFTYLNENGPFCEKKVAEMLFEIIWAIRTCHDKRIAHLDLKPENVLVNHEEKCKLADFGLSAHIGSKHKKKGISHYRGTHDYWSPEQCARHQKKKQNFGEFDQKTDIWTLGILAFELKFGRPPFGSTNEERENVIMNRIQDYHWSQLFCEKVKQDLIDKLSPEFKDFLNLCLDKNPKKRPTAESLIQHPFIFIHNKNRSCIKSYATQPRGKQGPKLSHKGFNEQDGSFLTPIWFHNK
experimental protocol: biochemical
Design: species or system Plasmodium falciparum asexual blood stage lysate; Kinobeads competitive pulldown from asexual blood stage P. falciparum extract, TMT quantitative mass spectrometry, apparent Kd
study conditions: Kdapp, Experiment ID=X048537; apparent Kd, Kinobeads competition
endpoint: Kd

Supply measured Kd of O=c1[nH]c2ccc(Cl)cc2c(N[C@@H]2CN3CCC2CC3)c1-c1nc2ccccc2[nH]1 [CHIR-124] in your reply. 180 nM
